- System: PSN1;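 also: suppression of growth of human PSN1 cells, read out by a cell viability assay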
- test_name: cells
- Assay type: functional, cell-based, Homo sapiens
- test_context: Homo sapiens, PSN1
- Description: SANGER: Inhibition of human PSN1 cell growth in a cell viability assay.
pIC50: −log10 of the molar value.
Item-by-item account of pIC50
quantity_name: pIC50

INSERT INTO results (smiles_record, experimental_value) VALUES
  ('O=c1cc(-c2cccc3c2Sc2ccccc2S3)oc(N2CCOCC2)c1', '< 5.00'),
  ('CCC1=C[C@@H]2CN(C1)Cc1c([nH]c3ccccc13)[C@@](C(=O)OC)(c1cc3c(cc1OC)N(C)[C@H]1[C@@](O)(C(=O)OC)[C@H](OC(C)=O)[C@]4(CC)C=CCN5CC[C@]31[C@@H]54)C2', '< 7.19'),
  ('Cc1ccc(Nc2nccc(N(C)c3ccc4c(C)n(C)nc4c3)n2)cc1S(N)(=O)=O', '< 5.10'),
  ('O=C1N=C(NCc2cccs2)S/C1=C\c1ccc2ncccc2c1', 5.39),
  ('Cc1cnc(-c2cnc(NCCNc3ccc(C#N)cn3)nc2-c2ccc(Cl)cc2Cl)[nH]1', '< 5.59'),
  ('CS(=O)(=O)CCNCc1ccc(-c2ccc3ncnc(Nc4ccc(OCc5cccc(F)c5)c(Cl)c4)c3c2)o1', '< 5.70');

----------
The entries below come with measured IC50 values attached.
- Test system: BT-20;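 also: cell viability assay measuring suppression of growth in human BT-20 cells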
- test_name: cells
- Type: functional, cell-based, Homo sapiens
- test_context: Homo sapiens, BT-20
- Description: SANGER: Inhibition of human BT-20 cell growth in a cell viability assay.
quantity_name: IC50

INSERT INTO assay_data (compound, assay_system, quantity_name, experimental_value) VALUES
  ('Cc1ccc(Nc2nccc(N(C)c3ccc4c(C)n(C)nc4c3)n2)cc1S(N)(=O)=O', 'BT-20', 'IC50', '> 8 µM'),
  ('C=CCNC1=C2C[C@@H](C)C[C@H](OC)[C@H](O)[C@@H](C)/C=C(\C)[C@H](OC(N)=O)[C@@H](OC)/C=C\C=C(/C)C(=O)NC(=CC1=O)C2=O', 'BT-20', 'IC50', '> 1 µM'),
  ('Nc1ccn([C@@H]2O[C@H](CO)[C@@H](O)[C@@H]2O)c(=O)n1', 'BT-20', 'IC50', '> 2 µM'),
  ('Cn1cncc1[C@@](N)(c1ccc(Cl)cc1)c1ccc2c(c1)c(-c1cccc(Cl)c1)cc(=O)n2C', 'BT-20', 'IC50', '> 16 µM'),
  ('COc1cc([C@@H]2c3cc4c(cc3[C@@H](O[C@@H]3O[C@@H]5CO[C@@H](C)O[C@H]5[C@H](O)[C@H]3O)[C@H]3COC(=O)[C@H]23)OCO4)cc(OC)c1O [ETOPOSIDE]', 'BT-20', 'IC50', '4.58 µM'),
  ('CC(=O)O[C@@]12CO[C@@H]1C[C@H](O)[C@@]1(C)C(=O)[C@H](O)C3=C(C)[C@@H](OC(=O)[C@H](O)[C@@H](NC(=O)OC(C)(C)C)c4ccccc4)C[C@@](O)([C@@H](OC(=O)c4ccccc4)[C@H]21)C3(C)C', 'BT-20', 'IC50', '0.00376 µM');

----------
- Tested on: RPMI 8402
- test_name: SANGER: Inhibition of human RPMI-8402 cell growth in a cell viability assay.
- Format: functional, cell-based
quantity_name: IC50

INSERT INTO measurements (molecule, experimental_value) VALUES
  ('Cc1cc([C@@H](C)Nc2ccccc2C(=O)O)c2nc(N3CCOCC3)cc(=O)n2c1 [AZD-6482]', '> 5120 nM'),
  ('CCC1=C[C@@H]2CN(C1)Cc1c([nH]c3ccccc13)[C@@](C(=O)OC)(c1cc3c(cc1OC)N(C)[C@H]1[C@@](O)(C(=O)OC)[C@H](OC(C)=O)[C@]4(CC)C=CCN5CC[C@]31[C@@H]54)C2 [VINORELBINE]', '12.3 nM'),
  ('C[C@]1(O)C[C@@H](c2nc(-c3ccc4ccc(-c5ccccc5)nc4c3)c3c(N)nccn32)C1 [LINSITINIB]', '> 2560 nM'),
  ('C=CCc1cccc(/C=N/NC(=O)CN2CCN(Cc3ccccc3)CC2)c1O [PAC-1]', '1770 nM'),
  ('CCc1nc(N)nc(N)c1-c1ccc(Cl)cc1 [PYRIMETHAMINE]', '8120 nM'),
  ('CS(=O)(=O)CCNCc1ccc(-c2ccc3ncnc(Nc4ccc(OCc5cccc(F)c5)c(Cl)c4)c3c2)o1 [LAPATINIB]', '> 2000 nM'),
  ('CC1=C2C[C@H]3[C@@H](CC=C4C[C@@H](O)CC[C@@]43C)[C@@H]2CC[C@]12O[C@@H]1C[C@H](C)CN[C@H]1[C@H]2C [CYCLOPAMINE]', '15900 nM');
